Measured Target: Adenosine receptor A1 (Homo sapiens, UniProt P30542)
Sequence (P30542 whole entry): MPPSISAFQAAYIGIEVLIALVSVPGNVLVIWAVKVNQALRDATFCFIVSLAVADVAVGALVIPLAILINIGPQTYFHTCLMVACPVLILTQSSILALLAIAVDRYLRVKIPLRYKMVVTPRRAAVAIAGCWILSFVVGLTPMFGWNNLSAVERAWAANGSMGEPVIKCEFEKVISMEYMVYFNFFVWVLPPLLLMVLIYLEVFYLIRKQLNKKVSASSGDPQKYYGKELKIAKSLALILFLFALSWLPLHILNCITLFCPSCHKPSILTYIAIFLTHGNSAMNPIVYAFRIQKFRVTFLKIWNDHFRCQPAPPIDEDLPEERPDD
Assay Comment: Displacement of [3H]N6-R-phenylisopropyladenosine from human adenosine A1 receptor expressed in CHO cell membranes
Endpoint Label: pKi
// pKi is dimensionless: -log10 of concentration (M)

Given the entry CCCNc1cc(C#Cc2ccc(Cl)s2)nc2c1ncn2[C@H]1[C@H](O)[C@H](O)[C@]2(C(=O)NC)C[C@H]12 , report its measured pKi.
5.61

---

Test system: Mus musculus
Assay Comment: Analgesic activity in mouse chronic constriction injury model of neuropathic pain assessed as protection of ipsilateral hind paw mechanoallodynia of sciatic nerve at 0.3 to 30 umol/kg administered through oral gavage at point of peak pain on day 7 measured at 3 hrs
Format: functional
The entries below are paired with their reported Activity.
Give the value; after it, write the unit.

Record excerpt, results attached:
CCCCNc1nc(C#Cc2ccc(Cl)s2)nc2c1ncn2[C@H]1[C@H](O)[C@H](O)[C@]2(C(=O)NC)C[C@H]12 :: 24%
CCNc1nc(C#Cc2ccc(Cl)s2)nc2c1ncn2[C@H]1[C@H](O)[C@H](O)[C@]2(C(=O)NC)C[C@H]12 :: 87%
CNC(=O)[C@@]12C[C@@H]1[C@@H](n1cnc3c(NC)nc(C#Cc4ccc(Cl)s4)nc31)[C@H](O)[C@@H]2O :: 46%
CNC(=O)[C@@]12C[C@@H]1[C@@H](n1cnc3c(NC(C)C)nc(C#Cc4ccc(Cl)s4)nc31)[C@H](O)[C@@H]2O :: 39%
CCNc1cc(C#Cc2ccc(Cl)s2)nc2c1ncn2[C@H]1[C@H](O)[C@H](O)[C@]2(C(=O)NC)C[C@H]12 :: 84%

Given the entry CNC(=O)[C@@]12C[C@@H]1[C@@H](n1cnc3c(NC)cc(C#Cc4ccc(Cl)s4)nc31)[C@H](O)[C@@H]2O , report its measured Activity.
80%

Given the entry CNC(=O)[C@@]12C[C@@H]1[C@@H](n1cnc3c(NCC4CC4)nc(C#Cc4ccc(Cl)s4)nc31)[C@H](O)[C@@H]2O , report its measured Activity.
85%

Given the entry CNC(=O)[C@@]12C[C@@H]1[C@@H](n1cnc3c(NCC4CCC4)nc(C#Cc4ccc(Cl)s4)nc31)[C@H](O)[C@@H]2O , report its measured Activity.
90%

Given the entry CNC(=O)[C@@]12C[C@@H]1[C@@H](n1cnc3c(NC4CCC4)nc(C#Cc4ccc(Cl)s4)nc31)[C@H](O)[C@@H]2O , report its measured Activity.
95%

Given the entry CCCNc1nc(C#Cc2ccc(Cl)s2)nc2c1ncn2[C@H]1[C@H](O)[C@H](O)[C@]2(C(=O)NC)C[C@H]12 , report its measured Activity.
93%

Given the entry CNC(=O)[C@@]12C[C@@H]1[C@@H](n1cnc3c(NC4CC4)nc(C#Cc4ccc(Cl)s4)nc31)[C@H](O)[C@@H]2O , report its measured Activity.
36%

---

Measured Target: Adenosine receptor A3 (Canis lupus familiaris, UniProt Q28309)
Assay Comment: Binding affinity to canine adenosine A3 receptor expressed in HEK293 cell membranes
Endpoint Label: Ki (nM)
Give just the numeric value; nM need not be written.

Provide value of Ki for this record tested with Adenosine receptor A3 (Canis lupus familiaris, UniProt Q28309): CNC(=O)[C@@]12C[C@@H]1[C@@H](n1cnc3c(NC)nc(C#Cc4ccc(Cl)s4)nc31)[C@H](O)[C@@H]2O
8.5

---

Measured Target: Adenosine receptor A1 (Homo sapiens) (UniProt P30542)
Sequence (whole entry): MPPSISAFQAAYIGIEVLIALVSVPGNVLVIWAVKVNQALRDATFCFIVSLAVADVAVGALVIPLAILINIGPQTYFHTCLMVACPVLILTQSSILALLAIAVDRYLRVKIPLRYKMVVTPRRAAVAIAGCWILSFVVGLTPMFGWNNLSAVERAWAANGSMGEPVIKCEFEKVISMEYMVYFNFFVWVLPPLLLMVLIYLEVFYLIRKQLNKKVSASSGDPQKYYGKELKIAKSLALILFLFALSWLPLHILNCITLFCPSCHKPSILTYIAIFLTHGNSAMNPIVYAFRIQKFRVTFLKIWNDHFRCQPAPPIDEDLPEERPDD
Assay Comment: Displacement of [3H]N6-R-phenylisopropyladenosine from human adenosine A1 receptor expressed in CHO cell membranes at 10 uM
The entries below are paired with their reported inhibition.
Give just the numeric value; % need not be written.

CNC(=O)[C@@]12C[C@@H]1[C@@H](n1cnc3c(NC)cc(C#Cc4ccc(Cl)s4)nc31)[C@H](O)[C@@H]2O :: 15

Given the entry CCCNc1nc(C#Cc2ccc(Cl)s2)nc2c1ncn2[C@H]1[C@H](O)[C@H](O)[C@]2(C(=O)NC)C[C@H]12 , report its measured inhibition.
22

Given the entry CNC(=O)[C@@]12C[C@@H]1[C@@H](n1cnc3c(NC4CCC4)nc(C#Cc4ccc(Cl)s4)nc31)[C@H](O)[C@@H]2O , report its measured inhibition.
39

Given the entry CCNc1nc(C#Cc2ccc(Cl)s2)nc2c1ncn2[C@H]1[C@H](O)[C@H](O)[C@]2(C(=O)NC)C[C@H]12 , report its measured inhibition.
28

Given the entry CNC(=O)[C@@]12C[C@@H]1[C@@H](n1cnc3c(NC(C)C)nc(C#Cc4ccc(Cl)s4)nc31)[C@H](O)[C@@H]2O , report its measured inhibition.
26

---

Measured Target: 5-hydroxytryptamine receptor 2B (Homo sapiens, UniProt P41595)
Sequence (P41595 whole entry): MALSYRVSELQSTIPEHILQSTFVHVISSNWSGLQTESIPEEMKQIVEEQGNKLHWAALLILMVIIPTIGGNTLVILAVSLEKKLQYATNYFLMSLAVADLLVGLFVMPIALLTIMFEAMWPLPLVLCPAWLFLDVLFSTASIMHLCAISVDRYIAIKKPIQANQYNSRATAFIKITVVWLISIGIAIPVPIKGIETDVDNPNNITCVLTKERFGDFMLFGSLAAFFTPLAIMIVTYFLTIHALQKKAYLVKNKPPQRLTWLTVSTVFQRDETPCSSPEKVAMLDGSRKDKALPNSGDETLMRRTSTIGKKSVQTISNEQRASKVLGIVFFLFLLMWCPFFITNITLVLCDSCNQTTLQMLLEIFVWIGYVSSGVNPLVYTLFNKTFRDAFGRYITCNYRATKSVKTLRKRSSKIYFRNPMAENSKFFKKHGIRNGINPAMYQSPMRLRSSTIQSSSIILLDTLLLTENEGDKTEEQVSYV
Assay Comment: Binding affinity to 5HT2B receptor (unknown origin)
Experimental Setup: read-out: Ki
Endpoint Label: Ki (µM)
Give just the numeric value; µM need not be written.

Given the entry CCNc1cc(C#Cc2ccc(Cl)s2)nc2c1ncn2[C@H]1[C@H](O)[C@H](O)[C@]2(C(=O)NC)C[C@H]12 , report its measured Ki.
2.5

---

Measured Target: Adenosine receptor A3 (Canis lupus familiaris)
Sequence (Q28309 whole entry): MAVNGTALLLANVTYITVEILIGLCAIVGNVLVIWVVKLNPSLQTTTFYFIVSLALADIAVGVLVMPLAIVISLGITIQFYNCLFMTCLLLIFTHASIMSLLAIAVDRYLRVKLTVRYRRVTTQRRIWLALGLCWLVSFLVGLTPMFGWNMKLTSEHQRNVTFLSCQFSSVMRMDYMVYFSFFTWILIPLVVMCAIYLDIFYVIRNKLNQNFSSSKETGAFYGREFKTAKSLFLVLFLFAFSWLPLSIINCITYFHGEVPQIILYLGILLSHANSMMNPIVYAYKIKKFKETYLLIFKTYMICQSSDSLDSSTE
Assay Comment: Binding affinity to canine adenosine A3 receptor expressed in HEK293 cell membranes
Experimental Setup: read-out: Ki
The entries below are paired with their reported Ki.
Give just the numeric value; nM need not be written.

Record excerpt, results attached:
CCNc1cc(C#Cc2ccc(Cl)s2)nc2c1ncn2[C@H]1[C@H](O)[C@H](O)[C@]2(C(=O)NC)C[C@H]12 :: 49
CCNc1nc(C#Cc2ccc(Cl)s2)nc2c1ncn2[C@H]1[C@H](O)[C@H](O)[C@]2(C(=O)NC)C[C@H]12 :: 1.5
CNC(=O)[C@@]12C[C@@H]1[C@@H](n1cnc3c(NC)cc(C#Cc4ccc(Cl)s4)nc31)[C@H](O)[C@@H]2O :: 75

Now for a further molecule.
Given the entry CCCNc1nc(C#Cc2ccc(Cl)s2)nc2c1ncn2[C@H]1[C@H](O)[C@H](O)[C@]2(C(=O)NC)C[C@H]12 , report its measured Ki.
5.8

---

Measured Target: Adenosine receptor A2a (Homo sapiens) (UniProt P29274)
Sequence (P29274 whole entry): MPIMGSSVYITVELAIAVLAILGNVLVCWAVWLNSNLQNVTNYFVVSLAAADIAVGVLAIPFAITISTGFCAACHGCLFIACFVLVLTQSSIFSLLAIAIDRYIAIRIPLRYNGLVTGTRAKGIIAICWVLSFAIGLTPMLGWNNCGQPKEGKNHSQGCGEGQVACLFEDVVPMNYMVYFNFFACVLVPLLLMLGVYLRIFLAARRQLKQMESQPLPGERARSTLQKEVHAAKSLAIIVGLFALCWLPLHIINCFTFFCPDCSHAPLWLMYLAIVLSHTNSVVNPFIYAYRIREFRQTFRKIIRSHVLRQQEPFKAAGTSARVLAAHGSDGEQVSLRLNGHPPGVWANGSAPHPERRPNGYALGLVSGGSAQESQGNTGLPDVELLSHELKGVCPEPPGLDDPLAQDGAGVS
Assay Comment: Displacement of [3H]2-[p-(2-carboxyethyl)phenyl-ethylamino]-5'-Nethylcarboxamidoadenosine from human adenosine A2A receptor expressed in HEK293 cell membranes at 10 uM
Endpoint Label: inhibition (%)
Give just the numeric value; % need not be written.

Record excerpt, results attached:
CCNc1nc(C#Cc2ccc(Cl)s2)nc2c1ncn2[C@H]1[C@H](O)[C@H](O)[C@]2(C(=O)NC)C[C@H]12 :: 12
CNC(=O)[C@@]12C[C@@H]1[C@@H](n1cnc3c(NCC4CCC4)nc(C#Cc4ccc(Cl)s4)nc31)[C@H](O)[C@@H]2O :: 5
CCNc1cc(C#Cc2ccc(Cl)s2)nc2c1ncn2[C@H]1[C@H](O)[C@H](O)[C@]2(C(=O)NC)C[C@H]12 :: 0

Now for a further molecule.
Given the entry CCCNc1cc(C#Cc2ccc(Cl)s2)nc2c1ncn2[C@H]1[C@H](O)[C@H](O)[C@]2(C(=O)NC)C[C@H]12 , report its measured inhibition.
11
